molecular target: VLA-4 (Homo sapiens, UniProt P05556+P13612); assay: In vitro binding inhibition of 51Cr-labeled Jurkat cells to solid phase-bound CS-1 compound (SEQ ID NO:1); type: cell-based; parameters: inflammatory cells that contain the VLA-4 receptor [Jurkat cells; host or cells: Jurkat (human T lymphoblastic line); details: relative to SEQ ID NO:3 = 1; potency before the prodrug compound is enzymatically converted to an active form
Sequence (P13612 34-1032): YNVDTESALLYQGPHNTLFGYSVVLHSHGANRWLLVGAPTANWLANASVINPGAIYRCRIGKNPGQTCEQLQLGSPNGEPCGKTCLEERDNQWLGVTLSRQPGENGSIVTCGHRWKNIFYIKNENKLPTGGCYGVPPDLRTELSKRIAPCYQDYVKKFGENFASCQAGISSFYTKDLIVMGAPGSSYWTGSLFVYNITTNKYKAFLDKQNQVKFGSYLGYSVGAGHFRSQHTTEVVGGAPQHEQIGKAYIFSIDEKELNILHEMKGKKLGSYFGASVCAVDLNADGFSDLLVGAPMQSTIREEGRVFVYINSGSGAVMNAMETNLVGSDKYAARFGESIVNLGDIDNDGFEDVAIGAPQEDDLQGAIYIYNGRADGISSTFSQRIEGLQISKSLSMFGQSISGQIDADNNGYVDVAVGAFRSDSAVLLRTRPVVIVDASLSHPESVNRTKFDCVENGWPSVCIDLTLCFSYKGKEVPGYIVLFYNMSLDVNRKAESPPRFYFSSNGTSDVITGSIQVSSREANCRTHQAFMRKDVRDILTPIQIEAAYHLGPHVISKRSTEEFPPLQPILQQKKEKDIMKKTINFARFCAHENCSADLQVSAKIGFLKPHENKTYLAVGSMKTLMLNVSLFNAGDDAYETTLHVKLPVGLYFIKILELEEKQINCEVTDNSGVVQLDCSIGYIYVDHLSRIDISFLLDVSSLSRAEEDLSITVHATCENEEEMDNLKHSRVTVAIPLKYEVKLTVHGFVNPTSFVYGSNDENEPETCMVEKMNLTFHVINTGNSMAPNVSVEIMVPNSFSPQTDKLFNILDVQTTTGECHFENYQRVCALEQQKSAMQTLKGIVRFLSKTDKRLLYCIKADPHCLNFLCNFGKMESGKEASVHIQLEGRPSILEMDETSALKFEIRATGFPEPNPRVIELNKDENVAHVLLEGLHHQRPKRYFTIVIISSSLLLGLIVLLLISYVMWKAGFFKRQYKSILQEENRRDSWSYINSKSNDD
Sequence (P05556 21-798): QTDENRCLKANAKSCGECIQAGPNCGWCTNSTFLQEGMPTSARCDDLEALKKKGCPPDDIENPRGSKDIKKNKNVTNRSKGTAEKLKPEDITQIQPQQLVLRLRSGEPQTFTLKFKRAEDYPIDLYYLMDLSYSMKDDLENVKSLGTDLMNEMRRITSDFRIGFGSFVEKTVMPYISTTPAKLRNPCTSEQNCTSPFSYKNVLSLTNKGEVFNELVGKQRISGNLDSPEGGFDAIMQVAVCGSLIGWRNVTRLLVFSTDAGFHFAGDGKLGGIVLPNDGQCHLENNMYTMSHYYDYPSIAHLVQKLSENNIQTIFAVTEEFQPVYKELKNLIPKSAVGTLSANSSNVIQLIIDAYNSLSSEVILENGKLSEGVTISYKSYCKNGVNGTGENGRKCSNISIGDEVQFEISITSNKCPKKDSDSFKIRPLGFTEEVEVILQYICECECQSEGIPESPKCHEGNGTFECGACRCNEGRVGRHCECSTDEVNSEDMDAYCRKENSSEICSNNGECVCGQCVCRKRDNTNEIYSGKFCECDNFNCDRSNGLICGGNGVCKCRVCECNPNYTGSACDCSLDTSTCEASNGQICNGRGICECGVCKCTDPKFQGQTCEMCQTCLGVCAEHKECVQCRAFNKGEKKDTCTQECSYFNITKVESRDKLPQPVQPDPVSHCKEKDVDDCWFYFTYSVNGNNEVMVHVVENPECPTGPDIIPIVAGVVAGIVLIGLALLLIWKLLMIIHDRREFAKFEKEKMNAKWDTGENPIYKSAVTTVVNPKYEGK
Square brackets hold non-standard residues; d marks the D form. Peptide text beside a SMILES is read from it. * marks the point of attachment. NHDecyl = CCCCCCCCCCN*; PhAc = O=C(Cc1ccccc1)*; X5 = CCCCCCCCCCCCO*
Measurement kind: Relative Potency (prodrug compound)
Just the number, please, no unit attached.

Record CCCCCCCCCCNC(=O)[C@@H]1CCCN1C(=O)[C@H](Cc1ccccc1)NC(=O)[C@H](CC(=O)O)NC(=O)[C@H](CC(C)C)NC(=O)Cc1ccccc1 [1068.04] (PhAc-LDFP-NHDecyl) ; system VLA-4 (Homo sapiens, UniProt P05556+P13612); Relative Potency (prodrug compound) = 2.13

Record CCCCCCCCCCCCOC(=O)C[C@H](NC(=O)[C@H](CC(C)C)NC(=O)Cc1ccccc1)C(=O)N[C@@H](Cc1ccccc1)C(=O)N1CCC[C@@H]1C(N)=O [1068.10] (PhAc-LD(X5)F[dP]-NH2) ; system VLA-4 (Homo sapiens, UniProt P05556+P13612); Relative Potency (prodrug compound) = 0

----------
molecular target: VLA-4 (Homo sapiens, UniProt P05556+P13612); experiment: In vitro binding inhibition of 51Cr-labeled Jurkat cells to solid phase-bound CS-1 compound (SEQ ID NO:1); type: cell-based; parameters: inflammatory cells that contain the VLA-4 receptor [Jurkat cells; host or cells: Jurkat (human T lymphoblastic line)
Square brackets hold non-standard residues; d marks the D form. Peptide text beside a SMILES is read from it. * marks the point of attachment. Quinaldoyl = O=C(c1ccc2ccccc2n1)*; Cha = N[C@@H](CC1CCCCC1)C(=O)O
Field: Relative Potency. Provide a value for each of the molecules that follow.
Just the number, please, no unit attached.

get_value(item= `NC(=O)[C@H]1CCCN1C(=O)[C@H](Cc1ccccc1)NC(=O)[C@H](CC(=O)O)NC(=O)CCCCC[N+](=O)[O-]` , readout=Relative Potency) returns 0

get_value(item= CC(C)C[C@H](NC(=O)c1ccc2ccccc2n1)C(=O)N[C@@H](CC(=O)O)C(=O)N[C@@H](Cc1ccccc1)C(=O)N1CCC[C@@H]1C(N)=O [951.06] (Quinaldoyl-LDF[dP]-NH2) , readout=Relative Potency) returns 8.97

get_value(item= CC[C@H](C)[C@H](N)C(=O)N[C@@H](CC1CCCCC1)C(=O)N[C@@H](CC(=O)O)C(=O)N[C@@H](Cc1ccccc1)C(=O)N1CCC[C@@H]1C(N)=O [896.29] (H-I[Cha]DF[dP]-NH2) , readout=Relative Potency) returns 2.27

get_value(item= `CC(C)[C@@H]1CC[C@@H](C)C[C@H]1OCC(=O)N[C@@H](CC(=O)O)C(=O)N[C@@H](Cc1ccccc1)C(=O)N1CCC[C@@H]1C(N)=O` , readout=Relative Potency) returns 0

----------
molecular target: VLA-4 (Homo sapiens, UniProt P05556+P13612); assay: In vitro binding inhibition of 51Cr-labeled Jurkat cells to solid phase-bound CS-1 compound (SEQ ID NO:1); format: cell-based; design: inflammatory cells that contain the VLA-4 receptor [Jurkat cells; host or cells: Jurkat (human T lymphoblastic line); details: binding inhibition potency relative to standard compound of SEQ ID NO:3 = 1 (normalized IC50); about one-tenth or less assigned zero
Square brackets hold non-standard residues; d marks the D form. Peptide text beside a SMILES is read from it. * marks the point of attachment. hPhe = N[C@@H](CCc1ccccc1)C(=O)O; Cha = N[C@@H](CC1CCCCC1)C(=O)O; Morpholide = C1CN(*)CCO1; PhAc = O=C(Cc1ccccc1)*; Bz = O=C(c1ccccc1)*
Would you please tag the item T when its Relative Potency is 7 or above, and F when it is below?

Quick check: does CC(C)C[C@H](NC(=O)Cc1ccccc1)C(=O)N[C@@H](CC(=O)O)C(=O)NCCN1CCOCC1 [997.03] have Relative Potency greater than or equal to 7?
T

Quick check: does CC(C)[C@H](NC(=O)[C@H](CC(=O)O)NC(=O)[C@H](CC1CCCCC1)NC(=O)c1ccccc1)C(=O)N1CCC[C@@H]1C(N)=O [896.34] (Bz-[Cha]DV[dP]-NH2) have Relative Potency greater than or equal to 7?
F

Quick check: does CC(C)C[C@H](NC(=O)Cc1ccccc1)C(=O)N[C@@H](CC(=O)O)C(=O)N[C@@H](CCc1ccccc1)C(=O)N1CCC[C@@H]1C(N)=O [1062.03] (PhAc-LD[hPhe][dP]-NH2) have Relative Potency greater than or equal to 7?
T

Quick check: does CC(C)C[C@H](NC(=O)Cc1ccccc1)C(=O)N[C@@H](CC(=O)O)C(=O)N1CCc2ccccc2C1 [997.09] have Relative Potency greater than or equal to 7?
F

Quick check: does CC(C)C[C@H](NC(=O)c1ccccc1)C(=O)N[C@@H](CC(=O)O)C(=O)N[C@H](C(=O)N1CCC[C@H]1C(N)=O)C(C)C [896.35] have Relative Potency greater than or equal to 7?
T

Quick check: does CC(C)C[C@H](NC(=O)Cc1ccccc1)C(=O)N[C@@H](CC(=O)O)C(=O)N[C@@H](Cc1ccccc1)C(=O)NCC(=O)N1CCOCC1 [1051.04] (PhAc-LDFG-Morpholide) have Relative Potency greater than or equal to 7?
F
